Form field: AVG proportion activity, percentage AMP + ATP→2ADP converted relative to wild-type (one value per entry).
- System: kinase activity of SEQID-00338 (AMP + ATP→2ADP)
- Assay notes: Kinase activity of SEQID-00338 and mutants, ADP-Glo Max Assay
- Type: biochemical
- Condition label: 7 μg/mL, 30 minute reaction at 30° C.; N=2
Property: AVG proportion activity, percentage AMP + ATP→2ADP converted relative to wild-type (%)

{"Molecule": "R42I: single amino acid mutant of SEQID-00338 at substrate binding position 42 (protein, listed as Saccharomyces cerevisiae, strain ATCC 204508 / S288c) MSSSESIRMVLIGPPGAGKGTQAPNLQERFHAAHLATGDMLISQIAKGTQLGLEAKKIMDQGGLVSDDIMVNMIKDELTNNPACKNGFILDGFPRTIPQAEKLDQMLKEQGTPLEKAIELKVDDELLVARITGRLIHPASGRSYHKIFNPPKEDMKDDVTGEALVQRSDDNADALKKRLAAYHAQTEPIVDFYKKTGIWAGVDASQPPATVWADILNKLGKD", "Numeric readout": 1.5}
{"Molecule": "R134M: single amino acid mutant of SEQID-00338 at substrate binding position 134 (protein, listed as Saccharomyces cerevisiae, strain ATCC 204508 / S288c) MSSSESIRMVLIGPPGAGKGTQAPNLQERFHAAHLATGDMLRSQIAKGTQLGLEAKKIMDQGGLVSDDIMVNMIKDELTNNPACKNGFILDGFPRTIPQAEKLDQMLKEQGTPLEKAIELKVDDELLVARITGMLIHPASGRSYHKIFNPPKEDMKDDVTGEALVQRSDDNADALKKRLAAYHAQTEPIVDFYKKTGIWAGVDASQPPATVWADILNKLGKD", "Numeric readout": 0.3}
